This collection of values is drawn from ChEMBL document CHEMBL1201862.

The following molecules are shown together with reported GI50 values.
System: DU-145
Assay: NCI tumour cell line growth inhibition, 48 h
Activity calls are given as the source filed them. Rule as the data show it: active = GI50 up to about 1.1 µM and inactive = higher.

molecule	GI50
COc1c2c(c(CC=C(C)C)c3oc(=O)c(-c4ccc(O)cc4)c(O)c13)OC(C)(C)C=C2 [LONCHOCARPIC ACID]	38.1 µM (inactive)
O=C(/C=C/c1cccc(Br)c1)c1cccs1	> 10 µM (inactive)
O=C1CC(NC(=O)C(F)(F)F)c2c(Br)sc(N3CCNCC3)c21 (configuration not stated)	> 100 µM (inactive)
Nc1nc(-c2ccccc2)cc(-c2ccc(OCc3ccccc3)cc2O)n1	73.6 µM (inactive)
[C-]#[N+]C1(C(=O)OCC)CC1	> 100 µM (inactive)
CCCCCC/C=C\CCCCCCCCCc1cccc(OC)c1O	> 100 µM (inactive)
O=c1cc(N2CCCC2)[nH]c(=O)n1-c1ccc(F)cc1	> 100 µM (inactive)

====

Measured GI50, listed per entry.
Test system: Malme-3M
Test: NCI tumour cell line growth inhibition, 48 h
Activity calls are given as the source filed them. Cut-off read from the data, not from the text of the source: active = GI50 up to about 1.1 µM and inactive = higher. Where a SMILES comes first, the peptide text is derived from it. [ ]: non-standard residue; d: D form. The star is where a group is joined. Cbz = O=C(OCc1ccccc1)*; Aib = CC(C)(N)C(=O)O

compound	systemTested	GI50
NC(=O)[C@H](Cc1ccc(O)cc1)NC1=C(Cl)C(=O)c2c(O)ccc(O)c2C1=O	Malme-3M	1.96 µM (inactive)
COc1ccc(N2C(=O)/C(=C/c3ccc(N(CCC#N)CCC#N)cc3C)N=C2c2cc([N+](=O)[O-])ccc2Cl)cc1	Malme-3M	27 µM (inactive)
CC(C)(NC(=O)C(C)(C)NC(=O)OCc1ccccc1)C(=O)O (Cbz-[Aib]-[Aib]-OH)	Malme-3M	> 100 µM (inactive)
O=c1[nH]c(=O)n(Cc2ccccc2CO)cc1Sc1ccccc1	Malme-3M	21.4 µM (inactive)
O=C1Nc2ccccc2Cn2c1cc1oc(-c3ccccc3)cc12	Malme-3M	30.3 µM (inactive)
COc1ccc(NC(=O)c2oc3cc(O)ccc3c(=O)c2C)c([N+](=O)[O-])c1	Malme-3M	> 100 µM (inactive)
O=c1[nH]c2cc([N+](=O)[O-])ccc2nc1/C(=N/Nc1ccccc1)C(O)c1ccccc1Cl (stereo not drawn)	Malme-3M	85.3 µM (inactive)
Nc1ccc(Cc2ccc(/N=C\c3ccc(OCc4cccc(COc5ccc(/C=N\c6ccc(Cc7ccc(N)cc7)cc6)cc5)n4)cc3)cc2)cc1	Malme-3M	63.1 µM (inactive)

====

Tested on: UO-31
Test: NCI tumour cell line growth inhibition, 48 h
Active and inactive are the calls of the source. Rule as the data show it: active = GI50 up to about 1.1 µM and inactive = higher.

compound	GI50
O=C(NC(=O)c1c(Cl)nc2sccn12)Nc1ccc(Cl)cc1	67.1 µM (inactive)
CS(=O)(=O)OCOS(C)(=O)=O	> 100 µM (inactive)
COc1c2c(c(CC=C(C)C)c3oc(=O)c(-c4ccc(O)cc4)c(O)c13)OC(C)(C)C=C2	27.8 µM (inactive)
COC(=O)NNC(c1ccc(Cl)cc1)c1ccc(Cl)cc1	12.5 µM (inactive)
N=C(N)N/N=C/c1c(-c2cccc([N+](=O)[O-])c2)nc2n1CCS2	15.5 µM (inactive)
COc1ccc(C(=O)NC2=C(Cl)C(=O)c3ccccc3C2=O)cc1	1.9 µM (inactive)
COc1cc(/C=C/C(=O)OC[C@]23O[C@H]2[C@@H](OC2OC(C)C(O)C(O)C2O)C2C=CO[C@@H](OC4OC(CO)C(O)C(O)C4O)C23)ccc1O (stereo partly drawn)	> 100 µM (inactive)
O=C(N1CCOCC1)C1(c2ccccc2)CCNCC1	> 100 µM (inactive)
COc1ccc2c(=O)c(-c3cc(OC)c(OC)cc3OC)coc2c1	34 µM (inactive)
COc1ccc(/C=C2\CCCCC2=O)cc1	> 100 µM (inactive)
Cc1ccc(C(O)c2cnc(C)n2Cc2ccccc2)cc1 (stereo not drawn)	> 100 µM (inactive)
CC(=O)OCC1C(C(C)OC(C)=O)CCC2C1CCC1(C)C(OC(C)=O)CCC21 (stereo not drawn)	61.9 µM (inactive)
O=C(O)C#CCO	> 100 µM (inactive)
